Answer each item with its documented GI50.
Numeric only. Scale: µM

[in] Lab note: need GI50 with CNS cancer cell lines for entry `O=C(CN1CCN(c2ncccn2)CC1)Nc1ccc(Cl)cc1C(=O)c1ccccc1Cl` , please look it up.
[out] 5.89

[in] Lab note: need GI50 with CNS cancer cell lines for entry `CC(C)(C)c1cn2cccc(C(=O)N3CCN(CC(=O)Nc4ccc(Cl)cc4C(=O)c4ccccc4Cl)CC3)c2n1` , please look it up.
[out] 1.41

[in] Lab note: need GI50 with CNS cancer cell lines for entry `O=C(CN1CCN(c2ccccn2)CC1)Nc1ccc(Cl)cc1C(=O)c1ccccc1Cl` , please look it up.
[out] 5.62

[in] Lab note: need GI50 with CNS cancer cell lines for entry `O=C(CN1CCN(c2ncnc3ccccc23)CC1)Nc1ccc(Cl)cc1C(=O)c1ccccc1Cl` , please look it up.
[out] 0.224

[in] Lab note: need GI50 with CNS cancer cell lines for entry `O=C(c1ccccc1)c1cc(Cl)ccc1OCCCCN1CCN(CCCCOc2ccc(Cl)cc2C(=O)c2ccccc2)CC1` , please look it up.
[out] 4.17

* * *

Test system: sixty human tumor cells derived from nine cancer types
Experiment: NCI in vitro anticancer screen, 48 h exposure, SRB assay, mean over all lines
Type: cell-based
Details: human tumor cell lines; 48 h exposure; 50% cell death
Returns one of condition met or condition not met; condition met when Log10LC50 mean graph midpoint (MG_MID) is >= -5.

[in] Has O=C(CN1CCN(c2ccccn2)CC1)Nc1ccc(Cl)cc1C(=O)c1ccccc1Cl [Compound 6a] a recorded Log10LC50 mean graph midpoint (MG_MID) greater than or equal to -5?
[out] condition met

[in] Has O=C(c1ccccc1)c1cc(Cl)ccc1OCCCCN1CCN(CCCCOc2ccc(Cl)cc2C(=O)c2ccccc2)CC1 [Compound 8b] a recorded Log10LC50 mean graph midpoint (MG_MID) greater than or equal to -5?
[out] condition not met

[in] Has O=C(CN1CCN(c2ncccn2)CC1)Nc1ccc(Cl)cc1C(=O)c1ccccc1Cl [Compound 6b] a recorded Log10LC50 mean graph midpoint (MG_MID) greater than or equal to -5?
[out] condition not met

[in] Has O=C(CN1CCN(CCCOc2oc3ccccc3c(=O)c2-c2ccccc2)CC1)Nc1ccc(Cl)cc1C(=O)c1ccccc1Cl [Compound 8a] a recorded Log10LC50 mean graph midpoint (MG_MID) greater than or equal to -5?
[out] condition not met

[in] Has O=C(CN1CCN(c2ncnc3ccccc23)CC1)Nc1ccc(Cl)cc1C(=O)c1ccccc1Cl [Compound 6d] a recorded Log10LC50 mean graph midpoint (MG_MID) greater than or equal to -5?
[out] condition met

[in] Has CC(C)(C)c1cn2cccc(C(=O)N3CCN(CC(=O)Nc4ccc(Cl)cc4C(=O)c4ccccc4Cl)CC3)c2n1 [Compound 6e] a recorded Log10LC50 mean graph midpoint (MG_MID) greater than or equal to -5?
[out] condition not met

* * *

# Leukemia cancer cell lines: log10 of GI50 values follow
Recall that a logarithmic scale is used here: each number is log10 of GI50 in nM.

[in] // log10 of GI50 lookup, key: `O=C(CN1CCN(c2ncnc3ccccc23)CC1)Nc1ccc(Cl)cc1C(=O)c1ccccc1Cl`
[out] 2.18

[in] // log10 of GI50 lookup, key: `O=C(c1ccccc1)c1cc(Cl)ccc1OCCCCN1CCN(CCCCOc2ccc(Cl)cc2C(=O)c2ccccc2)CC1`
[out] 2.80

[in] // log10 of GI50 lookup, key: `O=C(CN1CCN(c2ncccn2)CC1)Nc1ccc(Cl)cc1C(=O)c1ccccc1Cl`
[out] 3.74

[in] // log10 of GI50 lookup, key: `CC(C)(C)c1cn2cccc(C(=O)N3CCN(CC(=O)Nc4ccc(Cl)cc4C(=O)c4ccccc4Cl)CC3)c2n1`
[out] 2.93

[in] // log10 of GI50 lookup, key: `O=C(CN1CCN(c2ccccn2)CC1)Nc1ccc(Cl)cc1C(=O)c1ccccc1Cl`
[out] 3.55
